property: melting point

Fill blank: measured melting point of the compound CCOc1ccc(C2=NN(c3ccc(S(N)(=O)=O)cc3)C(c3ccc4c(c3)OCCO4)C2)cc1 (stereo not shown) is ____.
193 to 194 °C

Fill blank: measured melting point of the compound Cc1ccc(C2=NN(c3ccc(S(N)(=O)=O)cc3)C(c3ccc4c(c3)OCCO4)C2)cc1C (stereo not shown) is ____.
166 to 168 °C

Fill blank: measured melting point of the compound NS(=O)(=O)c1ccc(N2N=C(c3ccccc3F)CC2c2ccc3c(c2)OCO3)cc1 (stereo not shown) is ____.
180 to 181 °C

Fill blank: measured melting point of the compound NS(=O)(=O)c1ccc(N2N=C(c3ccccc3)CC2c2ccc3c(c2)OCCO3)cc1 (stereo not shown) is ____.
156 to 157 °C

Fill blank: measured melting point of the compound NS(=O)(=O)c1ccc(N2N=C(c3cc(F)cc(F)c3)CC2c2ccc3c(c2)OCCO3)cc1 (stereo not shown) is ____.
182 to 183 °C

Fill blank: measured melting point of the compound COc1cccc(C2=NN(c3ccc(S(N)(=O)=O)cc3)C(c3ccc4c(c3)OCCO4)C2)c1 (stereo not shown) is ____.
146 to 147 °C

Fill blank: measured melting point of the compound Cc1cc(C2=NN(c3ccc(S(N)(=O)=O)cc3)C(c3ccc4c(c3)OCCO4)C2)ccc1F (stereo not shown) is ____.
159 to 161 °C

Fill blank: measured melting point of the compound NS(=O)(=O)c1ccc(N2N=C(c3ccccc3F)CC2c2ccc3c(c2)OCCO3)cc1 (stereo not shown) is ____.
191 to 192 °C

Fill blank: measured melting point of the compound CCOc1ccc(C2=NN(c3ccc(S(N)(=O)=O)cc3)C(c3ccc4c(c3)OCO4)C2)cc1 (stereo not shown) is ____.
182 to 184 °C

Fill blank: measured melting point of the compound NS(=O)(=O)c1ccc(N2N=C(c3ccc(F)cc3)CC2c2ccc3c(c2)OCCO3)cc1 (stereo not shown) is ____.
195 to 196 °C

Fill blank: measured melting point of the compound NS(=O)(=O)c1ccc(N2N=C(c3cccc(F)c3)CC2c2ccc3c(c2)OCCO3)cc1 (stereo not shown) is ____.
200 to 201 °C

Fill blank: measured melting point of the compound Cc1ccc(C2=NN(c3ccc(S(N)(=O)=O)cc3)C(c3ccc4c(c3)OCCO4)C2)cc1 (stereo not shown) is ____.
153 to 154 °C

Fill blank: measured melting point of the compound NS(=O)(=O)c1ccc(N2N=C(c3cccc(F)c3)CC2c2ccc3c(c2)OCO3)cc1 (stereo not shown) is ____.
192 to 193 °C

###

Tested on: SW620 cells
Assay: MTT antiproliferation assay, SW620
Assay type: cell-based
Conditions: Homo sapiens, SW-620, 48 h, n = 3, read-out: IC50 ± SD SW620
Excerpt: MCF-7 (human breast cell line), HeLa (human cervical cell line), A549 (human lung cell line), HepG2 (human liver cell line), SW620 (human colorectal cell line) and a non-cancer cell line, NCM460 (Human colonic epithelial cells) were preserved at the State Key Laboratory of Pharmaceutical Biotechnology, Nanjing University (Nanjing, China). […]
property: pIC50
Keep it numeric: pIC50 is minus log10 of the concentration in mol/L.

Fill blank: measured pIC50 of the molecule Cc1cc(C2=NN(c3ccc(S(N)(=O)=O)cc3)C(c3ccc4c(c3)OCCO4)C2)ccc1F (stereo not drawn) [Compound 4t] is ____.
5.43

Fill blank: measured pIC50 of the molecule NS(=O)(=O)c1ccc(N2N=C(c3ccccc3)CC2c2ccc3c(c2)OCO3)cc1 (stereo not drawn) [Compound 4a] is ____.
5.47

Fill blank: measured pIC50 of the molecule NS(=O)(=O)c1ccc(N2N=C(c3ccccc3F)CC2c2ccc3c(c2)OCCO3)cc1 (stereo not drawn) [Compound 4y] is ____.
5.26

Fill blank: measured pIC50 of the molecule NS(=O)(=O)c1ccc(N2N=C(c3cc(F)cc(F)c3)CC2c2ccc3c(c2)OCCO3)cc1 (stereo not drawn) [Compound 4w] is ____.
5.42

Fill blank: measured pIC50 of the molecule NS(=O)(=O)c1ccc(N2N=C(c3ccc(Cl)cc3)CC2c2ccc3c(c2)OCCO3)cc1 (stereo not drawn) [Compound 4p] is ____.
5.45

Fill blank: measured pIC50 of the molecule Cc1ccc(C2=NN(c3ccc(S(N)(=O)=O)cc3)C(c3ccc4c(c3)OCO4)C2)cc1 (stereo not drawn) [Compound 4b] is ____.
6.07

Fill blank: measured pIC50 of the molecule Cc1ccc(C2=NN(c3ccc(S(N)(=O)=O)cc3)C(c3ccc4c(c3)OCCO4)C2)cc1 (stereo not drawn) [Compound 4l] is ____.
5.63

Fill blank: measured pIC50 of the molecule NS(=O)(=O)c1ccc(N2N=C(c3cccc(F)c3)CC2c2ccc3c(c2)OCCO3)cc1 (stereo not drawn) [Compound 4v] is ____.
5.32

Fill blank: measured pIC50 of the molecule COc1ccc(C2=NN(c3ccc(S(N)(=O)=O)cc3)C(c3ccc4c(c3)OCCO4)C2)cc1 (stereo not drawn) [Compound 4m] is ____.
5.41
